Target: human mAChR M1 (Homo sapiens)
Construct: host or cells: CHO-K1
Sequence (P11229 1-460): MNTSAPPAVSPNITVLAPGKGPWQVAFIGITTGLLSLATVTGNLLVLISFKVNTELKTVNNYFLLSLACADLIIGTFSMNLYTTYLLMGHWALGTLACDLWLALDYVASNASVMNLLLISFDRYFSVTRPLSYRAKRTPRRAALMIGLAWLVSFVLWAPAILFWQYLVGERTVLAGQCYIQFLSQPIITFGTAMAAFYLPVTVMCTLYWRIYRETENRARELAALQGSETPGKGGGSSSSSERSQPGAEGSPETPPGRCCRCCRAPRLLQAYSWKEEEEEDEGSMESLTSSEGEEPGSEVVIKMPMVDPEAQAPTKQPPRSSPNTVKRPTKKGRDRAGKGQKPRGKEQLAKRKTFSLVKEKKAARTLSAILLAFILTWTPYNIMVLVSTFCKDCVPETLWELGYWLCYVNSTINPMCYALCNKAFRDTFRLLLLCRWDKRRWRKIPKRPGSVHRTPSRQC
Test: mAChR M1 cell-based functional assay (calcium mobilization, Fluo-4, FDSS)
Conditions: CHO-K1 cells stably expressing hM1; EC20 acetylcholine response; read-out: Human M1 Emax
Assay Metric: Emax (%)
Report as a plain number; the unit % is understood.

{"Input Smiles": "O=C(NC1CCOCC1)c1cc(Cc2ccc(-n3cccn3)cc2)c2ccsc2n1", "Emax / %": 73.4}
{"Input Smiles": "Cn1ccc(-c2ccc(Cc3cc(C(=O)NCC4CCOCC4)nc4sccc34)cc2)n1", "Emax / %": 61.4}
{"Input Smiles": "Cn1ccc(-c2ccc(Cc3cc(C(=O)N[C@@H]4CC[C@H]4O)nc4c3ccn4C)cc2)n1", "Emax / %": 78}

Now look at this entry.
Qu. Look up Emax with human mAChR M1 (Homo sapiens) for this compound: `Cc1nc(-c2ccc(Cc3cc(C(=O)N[C@H]4CC[C@@H]4O)nc4c3ccn4C)cc2)co1`
Ans. 83.6
